// reported MIC per item
test system: A. baumannii ATCC 19606; test: microbe, parasite or virus in culture; assay type: cell-based, Acinetobacter baumannii; conditions: Acinetobacter baumannii, ATCC19606, broth microdilution, CLSI M100-ED34, MHB, triplicate, read-out: MIC
Respond with the bare value in µg/mL.

**Query** Which measured MIC value corresponds to CNC(C)C1CCC(N)C(OC2C(N)CC(N)C(OC3OCC(C)(O)C(NC)C3O)C2O)O1 (stereo not shown) [Gentamicin] ?
**Result** 1

**Query** Same question, CN(C)[C@@H]1C(O)=C(C(N)=O)C(=O)[C@@]2(O)C(O)=C3C(=O)c4c(O)cccc4[C@@](C)(O)[C@H]3C[C@@H]12 [Tetracycline] this time
**Result** 2

**Query** Same question, CO/N=C(\C(=O)N[C@@H]1C(=O)N2C(C(=O)O)=C(CSc3nc(=O)c(=O)[nH]n3C)CS[C@H]12)c1csc(N)n1 [Ceftriaxone] this time
**Result** 16

**Query** Same question, C[C@@H](O)[C@H]1C(=O)N2C(C(=O)O)=C(S[C@@H]3CN[C@H](C(=O)N(C)C)C3)[C@H](C)[C@H]12 [Meropenem] this time
**Result** 2
